Sourced from paper PMC12529666

# Tgt: AGO2 T357M (Homo sapiens, UniProt Q9UKV8 1-859, T357M;S387D;S824A;S828D;S831D;S834A)
# Sequence (Q9UKV8 whole entry T357M/S387D/S824A/S828D/S831D/S834A): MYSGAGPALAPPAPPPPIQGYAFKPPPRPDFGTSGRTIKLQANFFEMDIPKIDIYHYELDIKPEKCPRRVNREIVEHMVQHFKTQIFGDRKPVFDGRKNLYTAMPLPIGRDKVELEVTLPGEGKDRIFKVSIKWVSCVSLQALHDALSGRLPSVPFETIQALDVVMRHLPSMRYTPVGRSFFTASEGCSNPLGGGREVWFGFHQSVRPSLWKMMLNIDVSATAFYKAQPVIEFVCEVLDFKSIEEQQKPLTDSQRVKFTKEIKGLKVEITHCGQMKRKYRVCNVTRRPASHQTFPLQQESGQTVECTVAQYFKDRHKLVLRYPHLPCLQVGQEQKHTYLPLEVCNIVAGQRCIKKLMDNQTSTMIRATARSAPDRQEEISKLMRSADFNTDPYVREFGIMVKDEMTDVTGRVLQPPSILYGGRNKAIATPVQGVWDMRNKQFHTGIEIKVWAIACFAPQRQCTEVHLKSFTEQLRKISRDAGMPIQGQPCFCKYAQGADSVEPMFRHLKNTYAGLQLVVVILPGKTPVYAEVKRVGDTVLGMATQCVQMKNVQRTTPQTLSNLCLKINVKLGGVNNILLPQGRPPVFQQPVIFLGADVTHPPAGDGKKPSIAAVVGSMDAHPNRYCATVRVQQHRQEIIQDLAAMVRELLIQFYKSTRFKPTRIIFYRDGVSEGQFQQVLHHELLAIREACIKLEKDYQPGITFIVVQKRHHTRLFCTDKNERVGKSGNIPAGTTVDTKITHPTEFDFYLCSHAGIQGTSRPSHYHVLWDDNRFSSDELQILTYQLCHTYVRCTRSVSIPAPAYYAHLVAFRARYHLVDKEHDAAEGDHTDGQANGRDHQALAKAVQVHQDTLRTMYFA
# Assay Details: RNA Bind-n-Seq (nitrocellulose filter binding and sequencing); miR-122 guide loaded in AGO2; 60 min incubation; 30 mM Tris pH 8.0, 100 mM potassium acetate, 2 mM magnesium acetate, 0.5 mM TCEP, 0.005% NP-40, 0.01 mg/ml yeast tRNA; 3 nM AGO2-miR-122, 100 nM RNA library; 60; high values mean tight binding
# Experimental Parameters: protein: recombinant; tags: His6 (N-terminal, pFastBac HTA)
In this section we review reported binding signal values for a set of binders.
Metric: binding signal

1) GTGCCTCG (ssRNA, constant regions annealed to DNA blockers; guide miR-122 5' phosphate) RNA 1: GAGUUCUACAGUCCGACGAUCCCAACGUGCCUCGCACCUGGAAUUCUCGGGUGCCAA RNA 2: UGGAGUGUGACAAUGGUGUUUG DNA 1: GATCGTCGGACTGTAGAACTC DNA 2: TTGGCACCCGAGAATTCCA    0.57 fold enrichment over input
2) ACGCCCCG (ssRNA, constant regions annealed to DNA blockers; guide miR-122 5' phosphate) RNA 1: GAGUUCUACAGUCCGACGAUCCCAACACGCCCCGCACCUGGAAUUCUCGGGUGCCAA RNA 2: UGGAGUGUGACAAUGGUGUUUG DNA 1: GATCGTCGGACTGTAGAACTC DNA 2: TTGGCACCCGAGAATTCCA    0.524 fold enrichment over input
